# ASSAYED TARGET: Alpha-glucosidase (Saccharomyces cerevisiae S288c, UniProt P53341+P38158+P07265)
# ASSAY COMMENT: Inhibition of Saccharomyces cerevisiae alpha-glucosidase using p-nitrophenyl-alpha-D-glucopyranoside as substrate preincubated with substrate for 5 mins followed by enzyme addition and measured after 15 mins
# Format: protein assay
Recorded IC50, one value per entry.
REPORTED PROPERTY: IC50 (µM)

{"SMILES TEXT": "CCc1ccccc1Oc1ncc(C(=O)O)cc1N", "OUTPUT UNIT": "µM", "RESULT": 32.9}
{"SMILES TEXT": "Nc1cc(C(=O)O)cnc1Oc1ccc(Br)cc1Br", "OUTPUT UNIT": "µM", "RESULT": 457.8}
{"SMILES TEXT": "Nc1cc(C(=O)O)cnc1Oc1ccc(Cl)cc1", "OUTPUT UNIT": "µM", "RESULT": 607.8}
{"SMILES TEXT": "CCOc1ccc(C(=O)O)cn1", "OUTPUT UNIT": "µM", "RESULT": 442.5}
{"SMILES TEXT": "Nc1cc(C(=O)O)cnc1Oc1ccc(Br)cc1", "OUTPUT UNIT": "µM", "RESULT": 526}
{"SMILES TEXT": "CC(=O)c1ccc(Oc2ncc(C(=O)O)cc2N)cc1", "OUTPUT UNIT": "µM", "RESULT": 532.9}
{"SMILES TEXT": "COc1cccc(Sc2ccc(C(=O)O)cn2)c1", "OUTPUT UNIT": "µM", "RESULT": 544.6}
{"SMILES TEXT": "COc1ccccc1Oc1ncc(C(=O)O)cc1N", "OUTPUT UNIT": "µM", "RESULT": 26.4}
{"SMILES TEXT": "COc1ccc(C(=O)O)cn1", "OUTPUT UNIT": "µM", "RESULT": 878.8}
{"SMILES TEXT": "COc1ncc(C(=O)O)cc1N", "OUTPUT UNIT": "µM", "RESULT": 639}

---

# ASSAYED TARGET: Alpha-amylase (Sus scrofa domesticus) (UniProt Q7M328)
# Sequence (Q7M328 as listed by the source): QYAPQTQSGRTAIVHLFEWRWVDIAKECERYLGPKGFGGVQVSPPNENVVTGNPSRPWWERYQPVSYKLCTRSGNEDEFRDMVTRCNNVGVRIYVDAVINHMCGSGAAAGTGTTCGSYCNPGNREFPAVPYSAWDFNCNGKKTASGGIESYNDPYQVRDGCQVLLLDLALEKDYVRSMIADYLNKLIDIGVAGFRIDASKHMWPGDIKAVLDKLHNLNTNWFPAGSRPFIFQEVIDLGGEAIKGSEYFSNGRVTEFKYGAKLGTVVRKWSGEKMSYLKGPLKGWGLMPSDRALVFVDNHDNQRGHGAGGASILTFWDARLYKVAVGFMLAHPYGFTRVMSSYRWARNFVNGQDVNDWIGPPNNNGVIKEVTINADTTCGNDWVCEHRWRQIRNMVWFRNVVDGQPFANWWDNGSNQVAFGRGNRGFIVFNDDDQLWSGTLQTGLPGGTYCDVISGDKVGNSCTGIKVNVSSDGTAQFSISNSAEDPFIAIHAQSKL
# ASSAY COMMENT: Inhibition of porcine pancreas alpha-amylase assessed as enzyme inactivation using starch as substrate preincubated for 10 mins followed by substrate addition and measured after 10 mins by DNS reagent based colorimetric assay relative to control
# Set-up: concentration or dose not given beside the values
# ASSAY SETUP: time 20.0 min

{"SMILES TEXT": "Cc1ccc(Oc2ncc(C(=O)O)cc2N)cc1", "inhibition (%)": 44.3}
{"SMILES TEXT": "CC(=O)c1ccc(Oc2ccc(C(=O)O)cn2)cc1", "inhibition (%)": 38.5}
{"SMILES TEXT": "COc1ccc(C(=O)O)cn1", "inhibition (%)": 87.4}
{"SMILES TEXT": "Nc1cc(C(=O)O)cnc1Oc1ccc(Cl)cc1", "inhibition (%)": 59.9}
{"SMILES TEXT": "COc1ccccc1Sc1ncc(C(=O)O)cc1N", "inhibition (%)": 48.6}
{"SMILES TEXT": "COc1ccccc1Oc1ncc(C(=O)O)cc1N", "inhibition (%)": 55.2}
